experiment: protein stability index of a GFP-peptide fusion (GPS, HEK-293T) (PSI 1-6); higher = more stable; conditions: treatment: DMSO; c terminus: a fixed tail appended;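 further: 24-mer peptide tiles fused after GFP, lentivirally expressed, FACS-sorted into six equal bins by GFP/DsRed ratio, decoded by Illumina sequencing, PSI is the read-weighted mean bin number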
Label scheme for protein stability index: lower than 5 is N, 5 and above is Y.

The following sequences have reported results that may help.
EIAPQHRRGLLVSLNELMIVIGIL [SLC2A12]
N
MGPAQEAPVAEAWIPQAGPPELNY [ZNF449]
N
IDEYCVQQLKEFDGKSLVSVTKEG [HSP90AB1]
Y

Exam item: For this sequence, is measured protein stability index 5 or higher? SDPEISDVDEDEPGGLVGSADVVS [PPFIA4]
Marked response: Y

Exam item: For this sequence, is measured protein stability index 5 or higher? VQVENPERFSSAPCLLGSRVFSQG [TRIM35]
Marked response: N

Data provenance: the supplement of paper PMC10567573
